# SYSTEM_TESTED: TYK2 (Homo sapiens)
# ASSAY: TYK2 degradation MSD assay in human PBMC cells
# Assay type: cell-based
# Set-up: endogenous in cells; host or cells: human PBMC
# CONDITION_NOTES: 4 to 24 hours incubation, read-out: TYK2 MSD DC50 rating in human PBMC
Recorded DC50 values for a group of molecules are listed next.

Worked examples, 6 molecules total:
CNc1cc(Nc2cccn(-c3ccc(CNCc4ccc(N5CCC(N6CCC(c7ccc8c(c7)n(C)c(=O)n8C7CCC(=O)NC7=O)C6)CC5)cc4)cn3)c2=O)nn2c(C(=O)N[C@@H]3C[C@@H]3F)cnc12 (stereo partly shown) :: > 100 nM
CNc1cc(Nc2cccn(-c3ccc(C(=O)N4CC5(CN(CCC#Cc6ccc7c(c6)n(C)c(=O)n7C6CCC(=O)NC6=O)CCO5)C4)cn3)c2=O)nn2c(C(=O)N[C@@H]3C[C@@H]3F)cnc12 (stereo partly shown) :: > 100 nM
CNc1cc(Nc2cccc(CN(C)C3CCN(c4ccc5c(c4)n(C)c(=O)n5C4CCC(=O)NC4=O)CC3)c2)nn2c(C(=O)NC3CC3)cnc12 (stereo not shown) :: > 100 nM
CNc1cc(Nc2cccn(-c3cccc(C(=O)NCCCCCCCCCCc4ccc5c(c4)n(C)c(=O)n5C4CCC(=O)NC4=O)c3)c2=O)nn2c(C(=O)N[C@@H]3C[C@@H]3F)cnc12 (stereo partly shown) :: 1 to 10 nM
CNc1cc(Nc2cccn(-c3ccc(C(=O)N4CCC(N(C)CC5CCN(c6ccc(-c7ccc8c(c7)n(C)c(=O)n8C7CCC(=O)NC7=O)cc6)C5)CC4)cn3)c2=O)nn2c(C(=O)N[C@@H]3C[C@@H]3F)cnc12 (stereo partly shown) :: > 100 nM
Cn1c(=O)n(C2CCC(=O)NC2=O)c2ccc(CCCCCCCCNc3cc(Nc4cccn(-c5ccccn5)c4=O)nn4c(C(=O)N[C@@H]5C[C@@H]5F)cnc34)cc21 (stereo partly shown) :: > 100 nM

Q: Tell me DC50 reported for CNc1cc(Nc2cccn(-c3ccc(C(=O)N4CCC(OC5CC(c6cccc7c6n(C)c(=O)n7C6CCC(=O)NC6=O)C5)CC4)cn3)c2=O)nn2c(C(=O)N[C@@H]3C[C@@H]3F)cnc12 (stereo partly shown)
A: > 100 nM

Q: Tell me DC50 reported for CNc1cc(Nc2cccn(-c3cc(C(=O)NCCCCCCCCCCc4cccc5c4n(C)c(=O)n5C4CCC(=O)NC4=O)ccn3)c2=O)nn2c(C(=O)N[C@@H]3C[C@@H]3F)cnc12 (stereo partly shown)
A: > 100 nM

Q: Tell me DC50 reported for CNc1cc(Nc2cccn(-c3ccc(C(=O)N4CCN(CCCOCCc5ccc(-c6ccc7c(c6)n(C)c(=O)n7C6CCC(=O)NC6=O)cc5)CC4)cn3)c2=O)nn2c(C(=O)N[C@@H]3C[C@@H]3F)cnc12 (stereo partly shown)
A: > 100 nM

Q: Tell me DC50 reported for CNC(=O)c1cnc(Nc2ccc(CN(C)CC3CCN(Cc4cccc5c4n(C)c(=O)n5C4CCC(=O)NC4=O)CC3)cn2)cc1Nc1cccc(-c2ncc(F)cn2)c1OC (stereo not shown)
A: < 1 nM

---

Recorded DC50 values for a group of molecules are listed next.
# SYSTEM_TESTED: TYK2 (Homo sapiens, UniProt P29597)
# Sequence (P29597 whole entry): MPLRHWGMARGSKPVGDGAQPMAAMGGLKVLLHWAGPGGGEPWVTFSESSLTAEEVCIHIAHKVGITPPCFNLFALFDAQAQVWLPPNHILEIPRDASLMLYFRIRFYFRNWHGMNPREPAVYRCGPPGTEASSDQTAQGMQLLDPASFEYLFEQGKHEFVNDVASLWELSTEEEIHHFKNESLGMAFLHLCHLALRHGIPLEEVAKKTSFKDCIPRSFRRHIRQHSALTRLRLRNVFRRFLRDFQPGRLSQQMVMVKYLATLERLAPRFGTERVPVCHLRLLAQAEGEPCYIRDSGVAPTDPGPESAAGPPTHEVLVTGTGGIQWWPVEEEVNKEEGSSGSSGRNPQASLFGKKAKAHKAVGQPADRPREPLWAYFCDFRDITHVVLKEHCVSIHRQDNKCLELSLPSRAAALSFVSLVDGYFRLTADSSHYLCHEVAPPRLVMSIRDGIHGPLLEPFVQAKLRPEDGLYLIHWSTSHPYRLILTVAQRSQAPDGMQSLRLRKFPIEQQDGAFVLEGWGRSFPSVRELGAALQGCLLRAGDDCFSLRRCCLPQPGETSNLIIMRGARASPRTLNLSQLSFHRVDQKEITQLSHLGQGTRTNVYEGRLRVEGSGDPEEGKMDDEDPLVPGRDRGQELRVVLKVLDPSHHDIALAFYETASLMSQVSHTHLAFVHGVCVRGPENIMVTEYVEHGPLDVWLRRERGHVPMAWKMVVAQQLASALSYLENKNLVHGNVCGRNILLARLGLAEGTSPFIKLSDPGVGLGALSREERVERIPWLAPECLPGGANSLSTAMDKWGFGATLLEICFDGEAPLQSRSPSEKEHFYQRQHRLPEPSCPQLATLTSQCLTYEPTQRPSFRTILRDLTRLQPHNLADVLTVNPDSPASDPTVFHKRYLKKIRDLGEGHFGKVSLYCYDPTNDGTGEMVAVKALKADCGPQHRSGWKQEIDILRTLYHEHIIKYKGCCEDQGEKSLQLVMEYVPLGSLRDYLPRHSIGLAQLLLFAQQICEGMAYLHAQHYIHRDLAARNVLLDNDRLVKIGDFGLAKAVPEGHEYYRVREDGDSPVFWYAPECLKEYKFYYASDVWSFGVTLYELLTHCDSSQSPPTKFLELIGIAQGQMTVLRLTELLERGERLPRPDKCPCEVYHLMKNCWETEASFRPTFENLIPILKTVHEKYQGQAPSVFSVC
# ASSAY: TYK2 degradation MSD assay in EBV-B cells
# Assay type: cell-based
# Parameters: endogenous in cells; host or cells: EBV-B cells
# CONDITION_NOTES: 4 to 24 hours incubation, read-out: TYK2 MSD DC50 rating in EBV-B
# Description: Example 3. TYK2 Degradation MSD Assay in EBV-B, OCI-LY10, and Human PBMC Cells Degradation of TYK2 in cells was quantitatively measured using Meso Scale Discovery (MSD) technology. […] The assay plates were then incubated at room temperature for 1 hour, washed 3 times with 150 μl/well TBST buffer, and 150 μl/well MSD reading buffer (MSD, R92TC-2) were added. The plates were then analyzed by an MSD reader. […]

CNc1cc(Nc2cccc(-c3ccc(CN4CCN(c5cccc6c(N7CCC(=O)NC7=O)cncc56)CC4)cn3)c2)nn2c(C(=O)N[C@@H]3C[C@@H]3F)cnc12 :: 10 to 100 nM
CNC(=O)c1cnc(Nc2ccc(C(=O)NCCCCc3cccc4c3n(C)c(=O)n4C3CCC(=O)NC3=O)cn2)cc1Nc1ccccc1OC (stereo not drawn) :: > 100 nM

Q: Report its DC50 with TYK2 (Homo sapiens, UniProt P29597) as the test system: CNc1cc(Nc2cccn(-c3cc(C(=O)NCCOCCOCCc4cccc5c4n(C)c(=O)n5C4CCC(=O)NC4=O)ccn3)c2=O)nn2c(C(=O)N[C@@H]3C[C@@H]3F)cnc12 (stereo partly drawn)
A: > 100 nM

Q: Report its DC50 with TYK2 (Homo sapiens, UniProt P29597) as the test system: CNc1cc(Nc2cccc(CN3CCN(CCc4ccc5c(c4)n(C)c(=O)n5C4CCC(=O)NC4=O)CC3)c2)nn2c(C(=O)NC3CC3)cnc12 (stereo not drawn) [Example K613]
A: > 100 nM

Q: Report its DC50 with TYK2 (Homo sapiens, UniProt P29597) as the test system: CNC(=O)c1cnc(NC(=O)NCCCCCCc2cccc3c2n(C)c(=O)n3C2CCC(=O)NC2=O)cc1Nc1cccc(-c2ncc(F)cn2)c1OC (stereo not drawn)
A: > 100 nM

Q: Report its DC50 with TYK2 (Homo sapiens, UniProt P29597) as the test system: CNc1cc(Nc2ccccc2C(=O)NCCCCc2ccc3c(c2)n(C)c(=O)n3C2CCC(=O)NC2=O)nn2c(C(=O)N[C@@H]3C[C@@H]3F)cnc12 (stereo partly drawn)
A: > 100 nM

---

Recorded DC50 values for a group of compounds are listed next.
# SYSTEM_TESTED: TYK2 (Homo sapiens)
# ASSAY: TYK2 degradation MSD assay in human PBMC cells
# Format: cell-based
# Design: endogenous in cells; host or cells: human PBMC
# CONDITION_NOTES: 4 to 24 hours incubation, read-out: TYK2 MSD DC50 rating in human PBMC

CNC(=O)c1cnc(Nc2cc(CN3CCN(c4cccc5c4n(C)c(=O)n5C4CCC(=O)NC4=O)CC3)ccn2)cc1Nc1cccc(-c2ncc(F)cn2)c1OC (centres unmarked) :: < 1 nM
CNC(=O)c1cnc(Nc2ccc(C3CCN(Cc4ccc5c(c4)n(C)c(=O)n5C4CCC(=O)NC4=O)CC3)cn2)cc1Nc1cccc(-c2ncc(F)cn2)c1OC (centres unmarked) :: < 1 nM
CNC1=CC(Nc2cccc(-c3ccc(CN4CCN(c5ccc(-c6cccc7c(N8CCC(=O)NC8=O)cncc67)cc5)CC4)cn3)c2)=NN2C1=NCC2C(=O)N[C@@H]1C[C@@H]1F (some centres unmarked) :: > 100 nM

Q: Tell me DC50 reported for CNc1cc(Nc2cccc(-c3ccc(CNCc4ccc(N5CCC(N6CCC(c7ccc8c(c7)n(C)c(=O)n8C7CCC(=O)NC7=O)C6)CC5)cc4)cn3)c2)nn2c(C(=O)N[C@@H]3C[C@@H]3F)cnc12 (some centres unmarked)
A: > 100 nM

Q: Tell me DC50 reported for CNC(=O)c1cnc(Nc2ccc(C(=O)NCCCCCCCCc3ccc4c(c3)n(C)c(=O)n4C3CCC(=O)NC3=O)cn2)cc1Nc1cccc(-c2ncc(F)cn2)c1OC (centres unmarked)
A: < 1 nM

---

# SYSTEM_TESTED: UniProt P29597
# ASSAY: TYK2 degradation MSD assay in human PBMC cells
# Assay type: cell-based
# Design: endogenous in cells; host or cells: human PBMC
# CONDITION_NOTES: 4 to 24 hours incubation, read-out: TYK2 MSD DC50 rating in human PBMC
MEASURED_ATTRIBUTE: DC50

Worked examples, 4 compounds total:
CNc1cc(-c2cnn(C3CCC(CN(C)C4CCN(c5ccc6c(c5)n(C)c(=O)n6C5CCC(=O)NC5=O)CC4)CC3)c2)nn2c(C(=O)N[C@@H]3C[C@@H]3F)cnc12 (some centres unmarked) :: > 100 nM
Cn1c(=O)n(C2CCC(=O)NC2=O)c2ccc(CCCCCCCCCCNc3cc(Nc4cccn(-c5ccccn5)c4=O)nn4c(C(=O)N[C@@H]5C[C@@H]5F)cnc34)cc21 (some centres unmarked) :: > 100 nM
CNC(=O)c1cnc(Nc2ccc(C(=O)NCCCCc3cccc4c3n(C)c(=O)n4C3CCC(=O)NC3=O)cn2)cc1Nc1ccccc1 (centres unmarked) :: 1 to 10 nM
COc1c(Nc2cc(Nc3cc(C(=O)NCCCCc4cccc5c4n(C)c(=O)n5C4CCC(=O)NC4=O)ccn3)ncc2C(=O)NC2CC2)cccc1-c1ncc(F)cn1 (centres unmarked) :: 10 to 100 nM

Consider now this further compound.
Q: Tell me DC50 reported for CNC(=O)c1cnc(Nc2ccc(C(=O)NCCCCCCc3cccc4c3n(C)c(=O)n4C3CCC(=O)NC3=O)cn2)cc1Nc1cccc(-c2ncc(F)cn2)c1OC (centres unmarked)
A: < 1 nM
